All figures here come from patent US20230227437A1.

- target_under_test: hIL-17A (Homo sapiens, UniProt Q16552)
- Construct: purchased R&D 317-ILB
- Sequence (Q16552 20-155 limits assumed): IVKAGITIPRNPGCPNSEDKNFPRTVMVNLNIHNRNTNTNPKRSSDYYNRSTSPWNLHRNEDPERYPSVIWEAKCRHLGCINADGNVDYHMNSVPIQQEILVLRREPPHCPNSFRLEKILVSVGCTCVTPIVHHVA
- assay: Inhibition of hIL-17A-induced chemokine GROα/CXCL1 production in HT-29 cell
- Type: cell-based
Entries annotated with measured IC50

>  <compound>
Cc1n[nH]c(C)c1-c1ccc(NC(=O)[C@@H](NC(=O)c2nonc2C(C)C)C2c3cc(F)cc(F)c3OCC23CC3)cc1 (stereo partly shown)

>  <target_under_test>
hIL-17A (Homo sapiens, UniProt Q16552)

>  <IC50 / nM>
609

$$$$
>  <compound>
Cc1n[nH]c(C)c1-c1ccc(NC(=O)[C@@H](NC(=O)c2nonc2C2CC2)C2c3c(F)cc(F)cc3OCC23CC3)cc1 (stereo partly shown)

>  <target_under_test>
hIL-17A (Homo sapiens, UniProt Q16552)

>  <IC50 / nM>
557

$$$$
>  <compound>
Cc1n[nH]c(C)c1-c1ncc(NC(=O)[C@@H](NC(=O)c2nonc2C2CC2)C2c3ccc(F)cc3OCC23CC3)cc1F (stereo partly shown)

>  <target_under_test>
hIL-17A (Homo sapiens, UniProt Q16552)

>  <IC50 / nM>
1080

$$$$
>  <compound>
CCc1nonc1C(=O)N[C@H](C(=O)Nc1ccc(-c2c(C)n[nH]c2C)cc1)C1c2cc(F)ccc2OCC12CC2 (stereo partly shown)

>  <target_under_test>
hIL-17A (Homo sapiens, UniProt Q16552)

>  <IC50 / nM>
194

$$$$
>  <compound>
Cc1nonc1C(=O)N[C@H](C(=O)Nc1ccc(-c2c(C)n[nH]c2C)cc1)C1c2ccc(F)c(F)c2OCC12CC2 (stereo partly shown)

>  <target_under_test>
hIL-17A (Homo sapiens, UniProt Q16552)

>  <IC50 / nM>
346

$$$$
>  <compound>
Cc1nonc1C(=O)N[C@H](C(=O)Nc1ccc(-c2c(C)n[nH]c2C)nc1)C1c2ccc(F)cc2CC12CC2 (stereo partly shown)

>  <target_under_test>
hIL-17A (Homo sapiens, UniProt Q16552)

>  <IC50 / nM>
351

$$$$
>  <compound>
Cc1n[nH]c(C)c1-c1ccc(NC(=O)[C@@H](NC(=O)c2ccnn2C(C)C)C2c3c(F)ccc(F)c3OCC23CC3)cc1 (stereo partly shown)

>  <target_under_test>
hIL-17A (Homo sapiens, UniProt Q16552)

>  <IC50 / nM>
1050

$$$$
>  <compound>
Cc1n[nH]c(C)c1-c1ccc(NC(=O)[C@@H](NC(=O)c2ccnn2C)C2c3ccc(F)cc3CC23CC3)cn1 (stereo partly shown)

>  <target_under_test>
hIL-17A (Homo sapiens, UniProt Q16552)

>  <IC50 / nM>
872

$$$$
>  <compound>
CCc1nonc1C(=O)N[C@H](C(=O)Nc1ccc(-c2c(C)n[nH]c2C)nc1)C1c2ccc(F)cc2OCC12CC2 (stereo partly shown)

>  <target_under_test>
hIL-17A (Homo sapiens, UniProt Q16552)

>  <IC50 / nM>
267

$$$$
>  <compound>
Cc1n[nH]c(C)c1-c1ccc(NC(=O)[C@@H](NC(=O)c2nonc2C(C)C)C2c3cc(F)cc(F)c3OCC23CC3)cn1 (stereo partly shown)

>  <target_under_test>
hIL-17A (Homo sapiens, UniProt Q16552)

>  <IC50 / nM>
795

$$$$
>  <compound>
Cc1n[nH]c(C)c1-c1ccc(NC(=O)[C@@H](NC(=O)c2conc2C2CC2)C2c3ccc(F)cc3OCC23CC3)cn1 (stereo partly shown)

>  <target_under_test>
hIL-17A (Homo sapiens, UniProt Q16552)

>  <IC50 / nM>
213

$$$$
>  <compound>
Cc1n[nH]c(C)c1-c1ccc(NC(=O)[C@@H](NC(=O)c2nonc2C(C)C)C2c3ccc(F)c(F)c3OCC23CC3)cc1 (stereo partly shown)

>  <target_under_test>
hIL-17A (Homo sapiens, UniProt Q16552)

>  <IC50 / nM>
212

$$$$
>  <compound>
CCc1nocc1C(=O)N[C@H](C(=O)Nc1ccc(-c2c(C)n[nH]c2C)nc1)C1c2ccc(F)cc2OCC12CC2 (stereo partly shown)

>  <target_under_test>
hIL-17A (Homo sapiens, UniProt Q16552)

>  <IC50 / nM>
63

$$$$
